// provenance: patent US8129417B2

- Experimental system: human Cav2.2 (Homo sapiens)
- Protocol text: Assessment of calcium channel activity using FLIPR (Ca2+ influx in IMR32 cells)
- Format: cell-based
- Condition summary: 3 minute pre-incubation with compound (*), 2 μM nifedipine, depolarized with 80 mM KCl
The entries below come with measured IC50 values attached.
Give your result in µM as a bare value.

Here are 6 compounds together with their reported answers.
CC(C)(C)C(Cc1ccccc1)C(=O)N[C@@H]1CC[C@H]2CN(Cc3ccccc3)C[C@H]21 (stereo partly drawn): 5.6
O=C(N[C@@H]1CC[C@H]2CN(Cc3ccccc3)C[C@H]21)C1(c2ccccc2)CCCCC1 [Example 24]: 2.9
CC(Cc1ccccc1)C(=O)N[C@@H]1CC[C@H]2CN(Cc3ccccc3)C[C@H]21 (stereo partly drawn): 17.3
CC(C)C(C(=O)N[C@H]1CC[C@@H]2CN(CCCc3ccc(C(C)(C)C)cc3)C[C@@H]21)c1ccccc1 (stereo partly drawn): 5.8
CC(C)C(C(=O)N[C@H]1CC[C@@H]2CN(CCCCc3ccccc3)C[C@@H]21)c1ccccc1 (stereo partly drawn): 3.1
CC(C)(C(=O)N[C@@H]1CC[C@H]2CN(Cc3ccccc3)C[C@H]21)c1ccccc1: 9.7

Q: Quick one: IC50 for CC(Cc1ccccc1)C(=O)N[C@H]1CC[C@@H]2CN(Cc3ccccc3)C[C@@H]21 (stereo partly drawn) ?
Result: 15.2

Q: CC(C)C(C(=O)N[C@H]1CC[C@@H]2CN(Cc3ccccc3)C[C@@H]21)c1ccccc1 (relative stereo) ?
Result: 2.2

Q: Now consider CC(C)C(C(=O)N[C@H]1CC[C@@H]2CN(Cc3ccc(C(F)(F)F)cc3)C[C@@H]21)c1ccccc1 (stereo partly drawn) and answer again.
Result: 4.9

Q: Quick one: CC(C)C(C(=O)N[C@H]1CC[C@@H]2CN(Cc3ccccc3C(F)(F)F)C[C@@H]21)c1ccccc1 (stereo partly drawn)
Result: 4.8

Q: And then O=C(N[C@H]1CC[C@H]2CN(Cc3ccccc3)C[C@H]21)C(c1ccccc1)C1CCCC1 (relative stereo) , what is it?
Result: 1.8

Q: Another compound: CC(C)C(C(=O)N[C@H]1CC[C@@H]2CN(Cc3ccc(F)c(C(F)(F)F)c3)C[C@@H]21)c1ccccc1 (stereo partly drawn)
Result: 4.2

Q: // query: CC(C)(C(=O)N[C@H]1CC[C@@H]2CN(Cc3ccccc3)C[C@@H]21)c1ccccc1
Result: 15.6

Q: And for CC(C)C(C(=O)N[C@H]1CC[C@@H]2CN(Cc3ccc(C(F)(F)F)c(F)c3)C[C@@H]21)c1ccccc1 (stereo partly drawn) ?
Result: 4.7

* * *

Property: pIC50; scope: individual compounds
- Experimental system: human Cav2.2 (Homo sapiens, UniProt Q00975)
- Sequence (Q00975 whole entry): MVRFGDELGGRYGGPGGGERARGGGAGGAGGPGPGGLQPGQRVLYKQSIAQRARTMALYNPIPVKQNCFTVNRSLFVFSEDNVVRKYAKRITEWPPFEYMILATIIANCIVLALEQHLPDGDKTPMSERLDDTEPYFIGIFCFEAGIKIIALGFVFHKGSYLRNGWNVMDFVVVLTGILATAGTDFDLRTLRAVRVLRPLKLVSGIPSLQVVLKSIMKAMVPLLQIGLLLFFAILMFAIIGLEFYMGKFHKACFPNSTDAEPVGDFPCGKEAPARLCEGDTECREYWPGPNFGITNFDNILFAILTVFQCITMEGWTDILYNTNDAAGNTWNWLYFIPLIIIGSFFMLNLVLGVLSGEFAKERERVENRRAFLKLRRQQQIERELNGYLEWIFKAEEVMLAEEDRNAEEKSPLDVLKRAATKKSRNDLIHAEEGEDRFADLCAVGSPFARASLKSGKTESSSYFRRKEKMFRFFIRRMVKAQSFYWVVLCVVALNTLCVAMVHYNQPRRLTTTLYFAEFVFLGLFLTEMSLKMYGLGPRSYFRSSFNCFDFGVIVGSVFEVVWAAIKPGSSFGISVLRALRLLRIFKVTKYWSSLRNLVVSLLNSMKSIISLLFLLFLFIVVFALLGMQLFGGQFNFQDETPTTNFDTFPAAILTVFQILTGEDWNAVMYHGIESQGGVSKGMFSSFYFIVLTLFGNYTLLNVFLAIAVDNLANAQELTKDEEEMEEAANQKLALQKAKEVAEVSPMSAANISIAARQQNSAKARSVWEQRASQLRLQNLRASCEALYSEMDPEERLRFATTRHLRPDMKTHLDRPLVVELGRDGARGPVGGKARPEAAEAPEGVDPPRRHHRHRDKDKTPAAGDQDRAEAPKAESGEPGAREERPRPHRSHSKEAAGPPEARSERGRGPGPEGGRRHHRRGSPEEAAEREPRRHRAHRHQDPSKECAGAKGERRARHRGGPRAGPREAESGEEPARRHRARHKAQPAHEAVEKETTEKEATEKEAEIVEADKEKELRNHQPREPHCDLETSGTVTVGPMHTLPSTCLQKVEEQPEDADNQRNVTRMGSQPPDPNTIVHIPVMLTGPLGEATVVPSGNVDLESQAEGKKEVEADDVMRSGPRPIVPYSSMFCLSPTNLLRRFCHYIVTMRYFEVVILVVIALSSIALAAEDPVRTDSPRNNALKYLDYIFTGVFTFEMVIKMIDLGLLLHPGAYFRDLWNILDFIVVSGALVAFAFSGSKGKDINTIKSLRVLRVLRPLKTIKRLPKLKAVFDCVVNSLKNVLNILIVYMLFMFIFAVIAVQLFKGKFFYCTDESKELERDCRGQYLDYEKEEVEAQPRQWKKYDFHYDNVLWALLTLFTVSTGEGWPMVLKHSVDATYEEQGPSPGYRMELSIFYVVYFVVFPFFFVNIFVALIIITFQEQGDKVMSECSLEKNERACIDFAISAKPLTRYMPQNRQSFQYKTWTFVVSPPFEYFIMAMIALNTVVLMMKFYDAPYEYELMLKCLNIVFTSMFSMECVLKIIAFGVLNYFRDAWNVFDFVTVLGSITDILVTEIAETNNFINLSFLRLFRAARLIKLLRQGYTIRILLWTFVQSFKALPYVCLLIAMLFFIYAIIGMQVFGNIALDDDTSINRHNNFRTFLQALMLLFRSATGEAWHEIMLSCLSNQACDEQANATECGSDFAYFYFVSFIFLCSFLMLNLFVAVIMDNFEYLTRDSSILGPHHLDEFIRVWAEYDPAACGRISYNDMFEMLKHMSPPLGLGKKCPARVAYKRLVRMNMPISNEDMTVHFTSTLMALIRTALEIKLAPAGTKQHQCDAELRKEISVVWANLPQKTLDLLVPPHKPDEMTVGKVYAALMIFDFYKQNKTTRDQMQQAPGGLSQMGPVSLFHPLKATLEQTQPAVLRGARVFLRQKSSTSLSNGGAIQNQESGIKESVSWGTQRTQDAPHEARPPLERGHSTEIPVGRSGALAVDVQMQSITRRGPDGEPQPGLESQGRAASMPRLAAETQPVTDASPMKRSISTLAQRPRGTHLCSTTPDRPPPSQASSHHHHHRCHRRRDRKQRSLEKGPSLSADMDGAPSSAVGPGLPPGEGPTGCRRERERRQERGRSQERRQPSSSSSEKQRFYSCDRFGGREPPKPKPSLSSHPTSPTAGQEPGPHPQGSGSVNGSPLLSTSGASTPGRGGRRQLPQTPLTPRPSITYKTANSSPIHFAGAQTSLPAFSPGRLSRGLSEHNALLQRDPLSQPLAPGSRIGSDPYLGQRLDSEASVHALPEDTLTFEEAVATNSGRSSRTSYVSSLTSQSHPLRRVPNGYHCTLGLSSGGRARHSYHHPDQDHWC
- Sequence (P54289 25-946 partner limits assumed): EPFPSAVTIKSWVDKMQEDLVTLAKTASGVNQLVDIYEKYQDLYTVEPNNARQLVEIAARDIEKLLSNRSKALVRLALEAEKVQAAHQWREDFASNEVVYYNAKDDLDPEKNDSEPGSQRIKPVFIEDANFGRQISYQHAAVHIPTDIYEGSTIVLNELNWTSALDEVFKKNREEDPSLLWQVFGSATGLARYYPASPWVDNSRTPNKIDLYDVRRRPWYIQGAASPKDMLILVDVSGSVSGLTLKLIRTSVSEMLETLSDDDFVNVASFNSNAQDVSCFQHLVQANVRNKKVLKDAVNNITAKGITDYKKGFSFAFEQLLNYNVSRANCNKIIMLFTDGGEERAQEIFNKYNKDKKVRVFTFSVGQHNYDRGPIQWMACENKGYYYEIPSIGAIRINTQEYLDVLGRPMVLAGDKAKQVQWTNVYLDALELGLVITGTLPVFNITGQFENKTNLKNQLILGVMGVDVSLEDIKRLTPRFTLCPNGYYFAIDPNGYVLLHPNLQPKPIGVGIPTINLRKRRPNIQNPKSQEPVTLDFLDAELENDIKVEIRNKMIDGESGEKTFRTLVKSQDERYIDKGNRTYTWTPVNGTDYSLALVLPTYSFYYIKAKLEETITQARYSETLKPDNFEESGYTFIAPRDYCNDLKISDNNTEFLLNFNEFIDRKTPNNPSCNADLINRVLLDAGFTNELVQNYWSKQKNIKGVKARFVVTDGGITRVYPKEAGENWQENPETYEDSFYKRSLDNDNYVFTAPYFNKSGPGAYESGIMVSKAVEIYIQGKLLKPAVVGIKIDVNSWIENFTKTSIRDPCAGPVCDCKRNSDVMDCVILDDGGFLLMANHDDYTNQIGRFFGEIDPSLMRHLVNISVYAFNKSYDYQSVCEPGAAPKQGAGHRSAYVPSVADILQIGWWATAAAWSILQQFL
- Sequence (P54289 947-1103 partner limits assumed): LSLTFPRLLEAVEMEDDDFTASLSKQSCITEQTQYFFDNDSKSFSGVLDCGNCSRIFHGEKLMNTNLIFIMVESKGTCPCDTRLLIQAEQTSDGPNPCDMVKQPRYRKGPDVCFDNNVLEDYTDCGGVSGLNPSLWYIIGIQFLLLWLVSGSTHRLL
- Sequence (P54284 whole entry partner): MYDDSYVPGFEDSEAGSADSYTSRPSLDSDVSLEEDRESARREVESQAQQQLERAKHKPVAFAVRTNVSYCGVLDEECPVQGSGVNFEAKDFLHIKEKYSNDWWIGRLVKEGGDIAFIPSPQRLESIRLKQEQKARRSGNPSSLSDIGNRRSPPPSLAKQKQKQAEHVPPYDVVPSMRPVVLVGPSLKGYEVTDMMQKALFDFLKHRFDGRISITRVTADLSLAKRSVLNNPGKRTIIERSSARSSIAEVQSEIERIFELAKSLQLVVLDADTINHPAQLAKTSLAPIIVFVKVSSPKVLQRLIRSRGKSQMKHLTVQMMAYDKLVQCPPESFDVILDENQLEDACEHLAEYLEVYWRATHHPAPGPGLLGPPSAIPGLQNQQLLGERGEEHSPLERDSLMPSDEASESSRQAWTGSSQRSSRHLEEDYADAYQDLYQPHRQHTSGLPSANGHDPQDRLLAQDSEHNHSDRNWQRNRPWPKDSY
- Protocol text: Assessment of calcium channel activity using FLIPR (Ca2+ influx in IMR32 cells)
- Format: cell-based
- Condition summary: 60 minute pre-incubation with compound, 2 μM nifedipine, depolarized with 80 mM KCl
Notebook: values listed as pIC50 are -log10 of the concentration (mol/L).

Guide cases for pIC50, answers given:
CC(C)(C)C[C@H](NC1CCCC1)C(=O)N[C@H]1CC[C@@H]2CN(S(=O)(=O)c3ccc(C(F)(F)F)cc3)C[C@@H]21: 6.09
CC(C)C[C@@H](C(=O)N[C@@H]1CC[C@H]2CN(S(=O)(=O)c3cccc(C(F)(F)F)c3)C[C@H]21)N1CCOCC1: 5.92
CC(C)Cc1ccc([C@H](C)C(=O)N[C@@H]2CC[C@H]3CN(Cc4ccccc4)C[C@H]32)cc1: 5.60
CN[C@@H](CC(C)(C)C)C(=O)N[C@H]1CC[C@@H]2CN(S(=O)(=O)c3ccc(C(F)(F)F)cc3Cl)C[C@@H]21: 6.24
CCCN(C(=O)[C@H](CC(C)(C)C)NC)[C@H]1CC[C@@H]2CN(S(=O)(=O)c3ccc(C(F)(F)F)cc3)C[C@@H]21: 5.63

Q: Quick check: pIC50 on human Cav2.2 (Homo sapiens, UniProt Q00975), item CC(C)C[C@@H](C(=O)N[C@H]1CC[C@@H]2CN(Cc3ccc(F)cc3)C[C@@H]21)N(C)C(=O)OC(C)(C)C ?
Result: 5.76
